The reported measurements were obtained from patent US10246426B2.

The following compounds are shown together with reported pIC50 values.
molecular target: Cav3.2 (Homo sapiens, UniProt O95180); assay: Calcium flux FLIPR assay, HEK293 cells recombinantly expressing Cav3.2; settings: Cav3.2-channel, Ca2+ entry stimulated by 10 mM CaCl2
Sequence (O95180 whole entry, looked up): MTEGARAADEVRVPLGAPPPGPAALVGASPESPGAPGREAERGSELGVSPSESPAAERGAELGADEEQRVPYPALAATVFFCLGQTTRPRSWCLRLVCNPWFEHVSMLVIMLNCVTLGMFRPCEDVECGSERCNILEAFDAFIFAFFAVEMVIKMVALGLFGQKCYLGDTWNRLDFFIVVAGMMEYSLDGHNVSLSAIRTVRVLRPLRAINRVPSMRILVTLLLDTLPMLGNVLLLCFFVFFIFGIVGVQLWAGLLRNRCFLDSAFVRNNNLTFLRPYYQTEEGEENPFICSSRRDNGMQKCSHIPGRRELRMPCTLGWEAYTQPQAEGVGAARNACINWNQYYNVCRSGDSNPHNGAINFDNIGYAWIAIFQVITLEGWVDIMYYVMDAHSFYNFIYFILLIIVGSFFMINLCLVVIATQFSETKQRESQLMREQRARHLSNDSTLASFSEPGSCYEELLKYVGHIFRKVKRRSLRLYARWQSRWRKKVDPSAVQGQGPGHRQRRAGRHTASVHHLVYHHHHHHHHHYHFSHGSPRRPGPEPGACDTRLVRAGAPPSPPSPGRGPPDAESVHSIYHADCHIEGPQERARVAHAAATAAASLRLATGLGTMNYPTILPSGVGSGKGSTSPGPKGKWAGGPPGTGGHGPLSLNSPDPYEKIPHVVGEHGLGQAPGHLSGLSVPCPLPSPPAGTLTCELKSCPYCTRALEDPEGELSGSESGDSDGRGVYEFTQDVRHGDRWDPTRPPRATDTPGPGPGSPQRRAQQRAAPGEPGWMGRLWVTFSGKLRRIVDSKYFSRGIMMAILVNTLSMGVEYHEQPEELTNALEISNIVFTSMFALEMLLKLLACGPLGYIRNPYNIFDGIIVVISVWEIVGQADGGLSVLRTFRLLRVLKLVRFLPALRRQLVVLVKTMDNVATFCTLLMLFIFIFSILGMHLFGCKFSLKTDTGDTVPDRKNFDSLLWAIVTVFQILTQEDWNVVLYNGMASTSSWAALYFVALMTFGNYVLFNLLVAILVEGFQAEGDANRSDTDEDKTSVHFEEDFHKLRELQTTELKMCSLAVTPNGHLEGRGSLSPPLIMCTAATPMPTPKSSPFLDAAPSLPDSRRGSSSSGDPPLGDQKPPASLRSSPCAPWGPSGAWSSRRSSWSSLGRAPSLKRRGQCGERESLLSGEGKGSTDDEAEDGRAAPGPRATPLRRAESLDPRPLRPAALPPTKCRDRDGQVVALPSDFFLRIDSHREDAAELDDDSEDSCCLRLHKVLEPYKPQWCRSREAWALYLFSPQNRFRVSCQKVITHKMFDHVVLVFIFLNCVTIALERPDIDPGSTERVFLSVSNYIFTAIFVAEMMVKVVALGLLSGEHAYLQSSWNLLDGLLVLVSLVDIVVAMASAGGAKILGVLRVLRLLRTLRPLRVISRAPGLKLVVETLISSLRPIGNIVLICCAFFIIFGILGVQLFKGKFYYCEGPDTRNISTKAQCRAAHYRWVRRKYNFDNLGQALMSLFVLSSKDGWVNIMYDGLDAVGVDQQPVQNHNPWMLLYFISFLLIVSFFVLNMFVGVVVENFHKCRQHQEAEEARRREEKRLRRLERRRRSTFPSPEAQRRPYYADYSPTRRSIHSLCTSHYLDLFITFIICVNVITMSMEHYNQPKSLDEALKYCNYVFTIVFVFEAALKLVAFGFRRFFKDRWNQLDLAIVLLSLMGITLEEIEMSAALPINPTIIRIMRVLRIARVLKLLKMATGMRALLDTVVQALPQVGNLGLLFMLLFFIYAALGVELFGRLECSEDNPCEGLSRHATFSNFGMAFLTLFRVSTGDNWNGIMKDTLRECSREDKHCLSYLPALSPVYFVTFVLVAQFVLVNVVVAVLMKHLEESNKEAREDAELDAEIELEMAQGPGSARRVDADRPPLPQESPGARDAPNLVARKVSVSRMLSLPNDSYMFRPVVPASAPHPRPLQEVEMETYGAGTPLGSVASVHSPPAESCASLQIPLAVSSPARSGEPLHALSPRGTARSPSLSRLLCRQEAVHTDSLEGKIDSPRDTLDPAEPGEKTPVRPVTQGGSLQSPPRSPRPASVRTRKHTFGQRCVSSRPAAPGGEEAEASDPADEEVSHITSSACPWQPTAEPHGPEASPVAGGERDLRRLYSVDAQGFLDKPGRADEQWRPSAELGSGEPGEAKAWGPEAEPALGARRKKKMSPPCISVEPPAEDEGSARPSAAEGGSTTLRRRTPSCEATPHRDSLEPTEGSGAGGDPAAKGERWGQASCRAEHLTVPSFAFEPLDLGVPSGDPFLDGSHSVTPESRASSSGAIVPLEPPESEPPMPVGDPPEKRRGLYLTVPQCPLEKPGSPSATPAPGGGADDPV
Scale: negative log10 of molar concentration, which is what pIC50 denotes.

moleculeSmiles | pIC50
Cc1cn(C)c2cc(CC(=O)Nc3cnn(Cc4ccc(C#N)c(F)c4)n3)ccc12 | 7.70
COc1cc(Cn2ncc(NC(=O)Cc3ccc(C(C)(C)C)cc3)n2)ccc1C#N | 6.68
Cc1ccc(Cn2ncc(NC(=O)Cc3ccc(OCC4(F)COC4)cc3)n2)cc1C#N | 6.39

Proceeding to the next compound to report its pIC50.
Task: Missing value: pIC50, Cav3.2 (Homo sapiens, UniProt O95180), entry Cc1cc(Cn2ncc(NC(=O)Cc3ccc(N4CCC(F)(F)C4)nc3)n2)ccc1C#N . Fill in?
Output: 7.66

* * *

target: Cav3.2 (Homo sapiens, UniProt O95180); assay: Calcium flux FLIPR assay, HEK293 cells recombinantly expressing Cav3.2; settings: Cav3.2-channel, Ca2+ entry stimulated by 10 mM CaCl2
testReadout: pIC50
Scale: negative log10 of molar concentration, which is what pIC50 denotes.

Examples with their reported pIC50 follow.
molecule | recordedValue
CC(C)(C)c1ccc(CC(=O)Nc2cnn(Cc3ccc(OC(F)(F)F)cc3)n2)cc1 [Example 90] | 6.70
COc1cc(Cn2ncc(NC(=O)Cc3ccc(C4(C(F)(F)F)CC4)cc3)n2)ccc1F [Example 113] | 6.64

Task: Which pIC50 value is on record for CCCn1ncc2cc(CC(=O)Nc3cnn(Cc4ccc(C#N)cc4)n3)ccc21 [Example 104] ?
Output: 7.15

Task: Which pIC50 value is on record for CCCCn1ncc2cc(CC(=O)Nc3cnn(Cc4ccc(F)c(F)c4)n3)ccc21 [Example 30] ?
Output: 7.77

* * *

target: Cav3.2 (Homo sapiens, UniProt O95180); assay: Calcium flux FLIPR assay, HEK293 cells recombinantly expressing Cav3.2; settings: Cav3.2-channel, Ca2+ entry stimulated by 10 mM CaCl2
testReadout: pIC50
Scale: negative log10 of molar concentration, which is what pIC50 denotes.

Examples with their reported pIC50 follow.
compound | pIC50
O=C(Cc1ccc(C2COC2)cc1)Nc1cnn(Cc2ccc(F)c(F)c2)n1 [Example 23] | 7.34
COc1cc(Cn2ncc(NC(=O)Cc3ccc(C4(C(F)(F)F)CC4)cc3)n2)cc(F)c1F [Example 227] | 6.11
CC(C)(C)c1ccc(CC(=O)Nc2cnn(Cc3ccc(OC(F)F)c(F)c3)n2)cc1 [Example 178] | 7.31
CN(CC1CC1)c1ccc(CC(=O)Nc2cnn(Cc3ccc(F)c(F)c3)n2)cn1 [Example 12] | 7.51
CCn1ncc2cc(CC(=O)Nc3cnn(Cc4ccc(C#N)c(F)c4)n3)ccc21 [Example 139] | 7.16
CCn1ncc2cc(CC(=O)Nc3cnn(Cc4ccc(C#N)c(C)c4)n3)ccc21 [Example 168] | 7.40
O=C(Cc1ccc2[nH]nc(C3CC3)c2c1)Nc1cnn(Cc2ccc(F)c(F)c2)n1 [Example 29] | 6.92

Proceeding to the next compound to report its pIC50.
Task: Which pIC50 value is on record for COc1c(F)cc(Cn2ncc(NC(=O)Cc3ccc(OCC4COC4)cc3)n2)cc1F [Example 141] ?
Output: 7.07

* * *

target: Cav3.2 (Homo sapiens, UniProt O95180); test: Calcium flux FLIPR assay, HEK293 cells recombinantly expressing Cav3.2; conditions: Cav3.2-channel, Ca2+ entry stimulated by 10 mM CaCl2
The following compounds are shown together with reported IC50 values.
Lab book: enter the figure in µM, no units written.

compound | IC50 (µM)
COc1ccc(Cn2ncc(NC(=O)Cc3ccc(OCC4COC4)cc3)n2)cc1F [Example 120] | 0.55
Cc1ccc(Cn2ncc(NC(=O)Cc3ccc(C(C)(C)C)cc3)n2)cc1 [Example 66] | 0.07
Cn1ncc2cc(CC(=O)Nc3cnn(Cc4ccc(F)c(F)c4)n3)cnc21 [Example 38] | 0.58
O=C(Cc1ccc2cc[nH]c2c1)Nc1cnn(Cc2ccc(F)c(F)c2)n1 [Example 8] | 0.037

Task: Missing value: IC50, Cav3.2 (Homo sapiens, UniProt O95180), entry CCOc1ccc(Cn2ncc(NC(=O)Cc3ccc(N4CCCC4)nc3)n2)cc1 [Example 45] . Fill in?
Output: 0.032

* * *

molecular target: Cav3.2 (Homo sapiens); assay: Calcium flux FLIPR assay, HEK293 cells recombinantly expressing Cav3.2; settings: Cav3.2-channel, Ca2+ entry stimulated by 10 mM CaCl2
# if measured IC50 < 200 nM: yes (1)  # else: no (0)

The examples below pair each entry with its known result.
moleculeSmiles | classAssignment
CCn1ncc2cc(CC(=O)Nc3cnn(Cc4ccc(F)c(F)c4)n3)ccc21 | yes (1)
Cn1ncc2cc(CC(=O)Nc3cnn(Cc4ccc(F)c(C#N)c4)n3)ccc21 | yes (1)

Task: Criterion: IC50 strictly below 200 nM. Is it met by COC1(c2ccc(CC(=O)Nc3cnn(Cc4ccc(C)c(C#N)c4)n3)cc2)COC1 ?
Output: no (0)

Task: Criterion: IC50 strictly below 200 nM. Is it met by COc1ccc(Cn2ncc(NC(=O)Cc3ccc(C(C)C)cc3)n2)cc1OC ?
Output: yes (1)

Task: Criterion: IC50 strictly below 200 nM. Is it met by COc1cc(Cn2ncc(NC(=O)Cc3ccc(N4CCC(F)(F)C4)nc3)n2)cc(F)c1F ?
Output: yes (1)

* * *

The following compounds are shown together with reported log10 of IC50 values.
Molecular target: Cav3.2 (Homo sapiens)
Test: Calcium flux FLIPR assay, HEK293 cells recombinantly expressing Cav3.2
Conditions: Cav3.2-channel, Ca2+ entry stimulated by 10 mM CaCl2
Procedure: In Vitro Methods—Measurement of Calcium Channel Flux by Means of FLIPR Assays. […] Stock solutions of test compounds are prepared to a concentration of 10 mM in DMSO. […] The kinetics of fluorescence increase are recorded for every well and the area under the fluorescence trace for every compound concentration is used to generate inhibition curves using non-linear regression sigmoidal concentration-response curve analysis with in-house software. […]
# values: log10(IC50), units nM

compound | log10 of IC50
CC1(c2ccc(CC(=O)Nc3cnn(Cc4ccc(OC(F)(F)F)cc4)n3)cc2)COC1 [Example 93] | 1.18
Cc1cc2cc(CC(=O)Nc3cnn(Cc4ccc(F)c(F)c4)n3)ccc2[nH]1 [Example 31] | 1.04
Cc1ccc(Cn2ncc(NC(=O)Cc3ccc(C4(F)COC4)cc3)n2)cc1C#N [Example 201] | 2.49
COc1cc(Cn2ncc(NC(=O)Cc3ccc(C(C)(C)C)cc3)n2)cc(F)c1C#N [Example 158] | 2.38
COc1cc(Cn2ncc(NC(=O)Cc3ccc(C4(OC)COC4)cc3)n2)ccc1F [Example 110] | 2.15
CCn1ncc2cc(CC(=O)Nc3cnn(Cc4cc(F)c(OC)c(F)c4)n3)ccc21 [Example 149] | 1.46
CC(C)(C)c1ccc(CC(=O)Nc2cnn(Cc3ccc(C#N)cc3)n2)cc1 [Example 96] | 1.64

Proceeding to the next compound to report its log10 of IC50.
Task: Which log10 of IC50 value is on record for COc1ccc(Cn2ncc(NC(=O)Cc3ccc(OC4CC(F)(F)C4)cc3)n2)cc1F [Example 125] ?
Output: 2.26

* * *

biological target: Cav3.2 (Homo sapiens, UniProt O95180); test: Calcium flux FLIPR assay, HEK293 cells recombinantly expressing Cav3.2; settings: Cav3.2-channel, Ca2+ entry stimulated by 10 mM CaCl2
testReadout: pIC50
Scale: negative log10 of molar concentration, which is what pIC50 denotes.

moleculeSmiles | testReadout | recordedValue
COc1c(F)cc(Cn2ncc(NC(=O)Cc3ccc(OC4CC(F)(F)C4)cc3)n2)cc1F | pIC50 | 6.09

Task: Which pIC50 value is on record for COc1ccc(Cn2ncc(NC(=O)Cc3ccc(C(C)C)cc3)n2)cc1F ?
Output: 7.36

Task: Which pIC50 value is on record for Cc1ccc(Cn2ncc(NC(=O)Cc3ccc(C4(C(F)(F)F)CC4)cc3)n2)cc1C#N ?
Output: 6.60

Task: Which pIC50 value is on record for CCn1ncc2cc(CC(=O)Nc3cnn(Cc4ccc(OC)c(F)c4)n3)ccc21 ?
Output: 6.82

Task: Which pIC50 value is on record for COc1cc(Cn2ncc(NC(=O)Cc3ccc(N4CCCC4)nc3)n2)ccc1F ?
Output: 6.85

Task: Which pIC50 value is on record for Cc1cc(Cn2ncc(NC(=O)Cc3ccc(C(C)C)cc3)n2)ccc1C#N ?
Output: 7.74

Task: Which pIC50 value is on record for CCN(CC)c1ccc(CC(=O)Nc2cnn(Cc3ccc(F)c(F)c3)n2)cn1 ?
Output: 7.82

Task: Which pIC50 value is on record for Cc1cc(Cn2ncc(NC(=O)Cc3ccc(C4(F)COC4)cc3)n2)ccc1C#N ?
Output: 7.04
